FYI, the data here is from patent EP0450097B1.

biological target: V₁ receptor (Rattus norvegicus, UniProt P30560); construct: Using rat liver plasma membrane preparations; assay: V₁ receptor binding assay ([³H]-Arg-vasopressin, rat liver plasma membrane preparations); conditions: 37°C for 10 minutes
Sequence (P30560 whole entry): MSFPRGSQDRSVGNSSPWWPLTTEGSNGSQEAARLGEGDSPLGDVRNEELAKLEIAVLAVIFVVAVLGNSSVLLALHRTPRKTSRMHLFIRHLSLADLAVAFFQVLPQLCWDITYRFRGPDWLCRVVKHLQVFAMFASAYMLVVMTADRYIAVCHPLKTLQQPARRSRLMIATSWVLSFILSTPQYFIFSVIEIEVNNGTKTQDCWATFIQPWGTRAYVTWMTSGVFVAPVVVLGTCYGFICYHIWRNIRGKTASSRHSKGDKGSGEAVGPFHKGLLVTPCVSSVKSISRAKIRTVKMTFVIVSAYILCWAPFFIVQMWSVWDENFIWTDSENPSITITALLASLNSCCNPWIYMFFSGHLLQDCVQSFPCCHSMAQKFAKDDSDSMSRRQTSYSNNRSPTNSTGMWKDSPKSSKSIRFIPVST
endpoint-name: IC50 (nM)

As a guide, the following entries are already answered.
INSERT INTO assay_data (compound, assayed_target, recorded_value) VALUES
  ('O=C(Nc1ccc(C(=O)N2CCCCc3ccccc32)cc1)C1CCCCC1', 'V₁ receptor (Rattus norvegicus, UniProt P30560)', 71),
  ('Cc1ccccc1C(=O)Nc1ccc(C(=O)N2CCCC(CN)c3ccccc32)cc1 (centres unmarked)', 'V₁ receptor (Rattus norvegicus, UniProt P30560)', 230),
  ('CC(=O)N1CCN(C(=O)COC2CCCN(C(=O)c3ccc(NC(=O)c4ccccc4C)cc3)c3ccccc32)CC1 (centres unmarked)', 'V₁ receptor (Rattus norvegicus, UniProt P30560)', 260),
  ('Cc1cccc(C)c1C(=O)Nc1ccc(C(=O)N2CCCCc3ccccc32)cc1', 'V₁ receptor (Rattus norvegicus, UniProt P30560)', 69),
  ('Cc1ccccc1C(=O)Nc1ccc(C(=O)N2CCCC(N(C)CC(N)=O)c3ccccc32)cc1 (centres unmarked)', 'V₁ receptor (Rattus norvegicus, UniProt P30560)', 290);

I: CC(=O)NCC1CCCN(C(=O)c2ccc(NC(=O)c3ccccc3C)cc2)c2ccccc21 (centres unmarked)
II: Cc1ccccc1C(=O)Nc1ccc(C(=O)N2CCCC(OCC(=O)N3CCS(=O)(=O)CC3)c3ccccc32)cc1 (centres unmarked)
Problem: Out of I and II , name the one with the higher IC50. # respond with the chosen item's label
Solution: II

* * *

Biological target: V₂ receptor (Rattus norvegicus, UniProt Q00788)
Construct: Using rat kidney plasma membrane preparations
Sequence (Q00788 whole entry): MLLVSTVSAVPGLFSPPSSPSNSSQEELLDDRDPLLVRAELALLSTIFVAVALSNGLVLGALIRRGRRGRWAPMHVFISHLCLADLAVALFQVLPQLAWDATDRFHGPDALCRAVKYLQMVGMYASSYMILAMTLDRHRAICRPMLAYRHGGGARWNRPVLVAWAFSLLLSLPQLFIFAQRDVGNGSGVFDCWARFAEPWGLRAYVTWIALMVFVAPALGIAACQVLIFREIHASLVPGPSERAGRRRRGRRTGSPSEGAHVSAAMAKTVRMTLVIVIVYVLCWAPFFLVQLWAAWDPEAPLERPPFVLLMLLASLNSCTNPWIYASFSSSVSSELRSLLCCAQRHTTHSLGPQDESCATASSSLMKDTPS
Assay: V₂ receptor binding assay ([³H]-Arg-vasopressin, rat kidney plasma membrane preparations)
Conditions: 4°C for 3 hours
Method: Using rat kidney plasma membrane preparations prepared according to O. Hechter's method [cf: J. Bio. […] The amount of [³H]-vasopressin combined with the membrane is measured by liquid scintillation counter and the rate of the inhibitory effect of the test compound is estimated according to the following equation. […] The results are expressed as IC₅₀ values, which is the concentration of the test compound required to achieve the inhibitory effect in the rate of 50 %.
pIC50: −log10 of the molar value.
endpoint-name: pIC50

As a guide, the following entries are already answered.
INSERT INTO assay_data (compound, endpoint_name, recorded_value) VALUES
  ('CNC(=O)OC1CCCN(C(=O)c2ccc(NC(=O)c3ccccc3C)cc2)c2ccccc21 (centres unmarked)', 'pIC50', 7.89),
  ('Cc1cccc(C(=O)Nc2ccc(C(=O)N3CCCc4ccccc43)cc2)c1C', 'pIC50', 7.12),
  ('C=CCN(CC(=O)Nc1ccc(C(=O)N2CCCCc3ccccc32)cc1)c1ccccc1', 'pIC50', 8.22),
  ('CN(C)C1CCCN(C(=O)c2ccc(NC(=O)c3ccccc3Cl)cc2)c2ccccc21 (centres unmarked)', 'pIC50', 7.47),
  ('Cc1cccc(C(=O)Nc2ccc(C(=O)N3CCOCc4ccccc43)cc2)c1', 'pIC50', 6.70);

1: Cc1ccccc1C(=O)Nc1ccc(C(=O)N2CCCC(N(C)CC(O)CO)c3ccccc32)cc1 (centres unmarked)
2: CN(C)C1CCCN(C(=O)c2ccc(NC(=O)c3cccc(N)c3)cc2)c2ccccc21 (centres unmarked)
3: CNC1CCCN(C(=O)c2ccc(NC(=O)c3ccccc3C)cc2Cl)c2ccccc21 (centres unmarked)
Problem: Reorder: pIC50, max to min. # list labels per requested ordering
Solution: 3, 1, 2

P: CN(C)C1CCCN(C(=O)c2ccc(NC(=O)Cc3ccccc3)cc2)c2ccccc21 (centres unmarked)
Q: CCCN1CCN(C(=O)c2ccc(NC(=O)c3cccc(C)c3C)cc2)c2ccccc2C1
R: Cc1ccccc1C(=O)Nc1ccc(C(=O)N2CCCC(N(C)C)c3ccccc32)cc1F (centres unmarked)
S: COc1cccc(NCC(=O)Nc2ccc(C(=O)N3CCCCc4ccccc43)cc2)c1
T: Cc1ccccc1C(=O)Nc1ccc(C(=O)N2CCCC(OCC(=O)N(C)C)c3ccccc32)cc1 (centres unmarked)
Problem: Reorder: pIC50, max to min. # list labels per requested ordering
Solution: T, R, P, S, Q

A: Cc1ccccc1C(=O)Nc1ccc(C(=O)N2CCCC(OCCCN3C(=O)c4ccccc4C3=O)c3ccccc32)cc1 (centres unmarked)
B: CN(C)C1CCCN(C(=O)c2ccc(NC(=O)CCc3ccccc3)cc2)c2ccccc21 (centres unmarked)
C: Cc1ccccc1C(=O)Nc1ccc(C(=O)N2CCCC(N(C)C)c3ccccc32)cc1OCc1ccccc1 (centres unmarked)
Problem: Endpoint returns the given compounds ordered by ascending pIC50. # list labels per requested ordering
Solution: C, B, A
